All figures here come from patent US20220017636A1.

# ASSAY TARGET: T1, CNDP2 peptide complexed with HLA-A*02:01 on T2 cells (human)
# T1 construct: whole, on cells; also called CNPD2
# EXPERIMENT: flow cytometry, peptide-loaded T2 cells;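 note: binding of single-chain Fv antibody constructs, raised in XenoMouse, to peptide-pulsed T2 cells measured by flow cytometry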
// reported Signal/background per item
Give the value as a plain number.

See these solved cases before continuing.
Input: Tell me the measured Signal/background of 18181-C9 (scFv, scFv in bacterial lysate, detected with anti-Flag M2) scFv: EVQLLESGPGLVKPSQTLSLTCTVSGDSISSNPYYWSWIRQLPGKGLEWIGYISYSGSTFYNPSLKSRVTISVDTSKNQFSLNLTSVTAADTAVYYCARDRLWFGVLNYYYGMDVWGLGTTVTVSSGGGGSGGGGSGGGGSELVLTQSPLSLPVTPGEPASISCRSSQSLLHRNGYNYLDWYLQKPGQSPQLLIYLGSNRASGVPDRFSGSGSGTDFTLKISRVEAEDVGVYYCMQGLQTPFTFGPGTKVEIK , please.
Output: 1

Input: Which Signal/background is listed for 18182-H9 (scFv, scFv in bacterial lysate, detected with anti-Flag M2) scFv: EVQLLESGGGLVQPGGSLRLSCAASGFTFSSHAMSWVRQAPGKGLEWVSAISGSGGGTYYADSVKARFTISRDNSKNTLYLQMNSLRAEDTAVYYCATGKGVHLGFDYWGQGTLVTVSSGGGGSGGGGSGGGGSELVLTQPPSVSVAPGQTARITCGGNNIGSKSVHWHQQKPGQAPVLVVYDDNDRPSGIPERFSGSNSGNTATLTISRVEAGDEADFYCQVWDSSSDHVVFGGGTKLTVL ?
Output: 1

Input: Consider the binder shown here: 18182-E6 (scFv, scFv in bacterial lysate, detected with anti-Flag M2) scFv: EVQLLESGGGLVQPGGSLRLSCAASGFTFSSYAMSWVRQAPGKGLEWVSAISGSGGGTYYADSVKGRFTISRDNSKNTLYLQMNSLRAEDTAVYYCATGKGVHLNFDYWGQGTLVTVSSGGGGSGGGGSGGGGSELVLTQPSSVSVAPGQTARITCGGNNIGSKSVHWYQQKPGQAPVLVVYDDNDRPSGIPERFSGSNFGNTATLIISRVAAGDEADYYCQVWDSSSDHVVFGGGTKLTVL What is its recorded Signal/background?
Output: 1

Input: Record request: Signal/background value, item 18181-G8 (scFv, scFv in bacterial lysate, detected with anti-Flag M2) scFv: EVQLLESGGGLVQPGGSLRLSCAASGFTFSNAWMSWVRQAPGKGLEWVGRIKGNTYGGTTDYAAPVKGRFTISRDDSKNTLFLQMNSLKTEDTAVYYCTTPSNSGSYYNYFSVMDVWGQGTTVTVSSGGGGSGGGGSGGGGSELVMTQSPSSLSASVGDRVTITCRTSQSISSYLNWYQQKPGKAPKLLIYAASSLQSGVPSRFSGSGSGTDFTLTISSLQPEDFATYYCQQTYSMPFTFGGGTKVEIK
Output: 1

Input: I have this binder here, 18181-A6 (scFv, scFv in bacterial lysate, detected with anti-Flag M2) scFv: EVQLLESGGGLVQPGGSLRLSCAASGFTFSNAWMSWVRQAPGKGLEWVGRIKGNTYGGTTDYAAPVKGRFTISRDDSKNTLYLQMNSLKTEDTAVYYCTTPSYSGSYYNYFSVMDVWGQGTTVTVSSGGGGSGGGGSGGGGSELVMTQSPSSLSASVGDRVTITCRASQSISSYLNWYQQKPGRAPKLLIFAASSLQGGVPSRFSGSGSGTDFTLTISSLQPEDFATYYCQQTYSMPFTFGPGTKLEIK , and I need its recorded Signal/background.
Output: 1

Continuing:
Input: Need Signal/background, item 18179-D11 (scFv, scFv in bacterial lysate, detected with anti-Flag M2) scFv: EVQLLESGGGLVKPGGSLRLSCAASGFTFSNAWMSWVRQAPGKGLEWVGRIKGNTYGGTTDYAAPVKGRFTISRDDSKNTLFLQMNSLKTEDTAVYYCTTPSYSGSYYNYFSVMDVWGQGTTVTVSSGGGGSGGGGSGGGGSELQMTQSPSSLSASVGDRVTITCRTSQSISSYLNWYQQKPGRAPKLLIFAASSLQGGVPSRFSGSGSGTDFTLTISSLQPEDFATYYCQQTYSMPFTFGPGTKVDIK
Output: 1

Input: Give its Signal/background value. Item: 18179-E1 (scFv, scFv in bacterial lysate, detected with anti-Flag M2) scFv: EVQLLESGGGLVQPGGSLRLSCAASGFTFSNAWMSWVRQAPGKGLEWVGRIKGNTYGGTTDYAAPVKGRFTISRDDSKNTLYLQMNSLKTEDTAVYYCTTPSYSGSYYNYFSVMDVWGQGTTVTVSSGGGGSGGGGSGGGGSELVMTQSPSSLSASVGDRVTITCRTSQSISSYLNWYQQKPGRAPKLLIFAASSLQGGVPSRFSGSGSGTDFTLTISSLQPEDFATYYCQQTYSMPFTFGPGTKVDIK
Output: 1

Input: Look at this binder and give its reported Signal/background. 18081-H11 (scFv, scFv in bacterial lysate, detected with anti-Flag M2) scFv: EVQLLESGPALVKPTQTLTLTCTFSGFSFTTHKMGVDWIRQPPGKALEWLALIYWNDDKRYSPSLQSRLTITKDTSKNQVVLTMTNMDPVDTATYYCAYRRYNWNYENWFDPWGQGTLVTVSSGGGGSGGGGSGGGGSELQMTQSPSSLSASVGDRVTITCQASQDISNYLNWYQQKPGKAPKLLIYAASSLQSGVPSRFSGSGSGTDFTLTISSLQPEDFATYYCQQSYTTPFTFGPGTKVEIK
Output: 0.9

Input: For 18182-E1 (scFv, scFv in bacterial lysate, detected with anti-Flag M2) scFv: EVQLLESGGGLVQPGGSLRLSCAASGFTFSSHAMSWVRQAPGKGLEWVSAISGSGGGTYNADSVKGRFTISRDNSKNTLYLQMNSLRAEDTAAYYCVTGKGVHLGFDYWGQGTLVTVSSGGGGSGGGGSGGGGSELVLTQPPSVSVAPGQTARITCGGNNIGSKSVHWYQQKPGQAPVMVVYDDNDRPSGIPERFSGSNSGNTATLTISRVEAGDEADYYCQVWDSSSDHVVFGGGTKLTVL , what is its reported Signal/background?
Output: 0.9

Input: Record request: Signal/background value, item 18181-E2 (scFv, scFv in bacterial lysate, detected with anti-Flag M2) scFv: EVQLLESGPGLVKPSQTLSLTCTVSGDSISSNPYYWSWIRQHPGKGLEWIGYISHSGSTYYNPSLKSRVTISVDTSKNQFSLNLTSVTAADTAVYYCARDRLWFGVLNYYYGMDVWGLGTTVTVSSGGGGSGGGGSGGGGSELVMTQSPLSLPVTPGEPASISCRSSQSLLHSSGYNYLDWYLQKPGQSPQLLIYLGSNRASGVPDRFSGSGSGTDFTLKISKVEAEDVGVYYCMQALQTPRTFGQGTKVDIK
Output: 1
